Data provenance is ChEMBL document CHEMBL4308875.

test: MRTlast in BALB/c mouse at 30 mg/kg, po
Type: ADME, organism-based
run parameters: in vivo
readout kind: MRT last (h)
Answer with a number only, understood to be in h.

Data request, read-out MRT last, for CC(C)c1ccc(-c2nc(CN3CCN(c4ccnc5cc(Cl)ccc45)CC3)no2)cc1
1.5

Data request, read-out MRT last, for c1cncc(-c2ccc3c(N4CCN(Cc5noc(C6CCCC6)n5)CC4)ccnc3c2)c1
1.31

Data request, read-out MRT last, for Cc1cccc(-c2nc(CN3CCN(c4ccnc5cc(-c6cccnc6)ccc45)CC3)no2)c1C
1.34

Data request, read-out MRT last, for CC(C)c1ccc(-c2nc(CN3CCN(c4ccnc5cc(-c6cccnc6)ccc45)CC3)no2)cc1
1.38
